The reported numbers originate from patent US11292792B2.

Biological target: His-tagged CRBN-DDB1 complex (Homo sapiens (Human))
Sequence (Q96SW2 whole entry): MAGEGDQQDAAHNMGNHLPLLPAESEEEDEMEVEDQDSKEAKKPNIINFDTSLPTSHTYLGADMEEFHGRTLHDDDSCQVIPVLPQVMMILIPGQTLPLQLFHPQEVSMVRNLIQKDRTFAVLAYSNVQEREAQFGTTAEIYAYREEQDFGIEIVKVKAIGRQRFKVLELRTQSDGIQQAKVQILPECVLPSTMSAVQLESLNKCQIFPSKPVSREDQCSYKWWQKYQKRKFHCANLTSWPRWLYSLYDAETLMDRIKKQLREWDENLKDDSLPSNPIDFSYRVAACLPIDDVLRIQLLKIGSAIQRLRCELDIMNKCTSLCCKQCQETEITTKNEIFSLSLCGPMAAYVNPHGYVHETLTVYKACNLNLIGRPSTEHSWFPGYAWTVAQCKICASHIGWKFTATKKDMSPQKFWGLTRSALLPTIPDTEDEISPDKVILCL
Sequence (Q16531 whole entry partner): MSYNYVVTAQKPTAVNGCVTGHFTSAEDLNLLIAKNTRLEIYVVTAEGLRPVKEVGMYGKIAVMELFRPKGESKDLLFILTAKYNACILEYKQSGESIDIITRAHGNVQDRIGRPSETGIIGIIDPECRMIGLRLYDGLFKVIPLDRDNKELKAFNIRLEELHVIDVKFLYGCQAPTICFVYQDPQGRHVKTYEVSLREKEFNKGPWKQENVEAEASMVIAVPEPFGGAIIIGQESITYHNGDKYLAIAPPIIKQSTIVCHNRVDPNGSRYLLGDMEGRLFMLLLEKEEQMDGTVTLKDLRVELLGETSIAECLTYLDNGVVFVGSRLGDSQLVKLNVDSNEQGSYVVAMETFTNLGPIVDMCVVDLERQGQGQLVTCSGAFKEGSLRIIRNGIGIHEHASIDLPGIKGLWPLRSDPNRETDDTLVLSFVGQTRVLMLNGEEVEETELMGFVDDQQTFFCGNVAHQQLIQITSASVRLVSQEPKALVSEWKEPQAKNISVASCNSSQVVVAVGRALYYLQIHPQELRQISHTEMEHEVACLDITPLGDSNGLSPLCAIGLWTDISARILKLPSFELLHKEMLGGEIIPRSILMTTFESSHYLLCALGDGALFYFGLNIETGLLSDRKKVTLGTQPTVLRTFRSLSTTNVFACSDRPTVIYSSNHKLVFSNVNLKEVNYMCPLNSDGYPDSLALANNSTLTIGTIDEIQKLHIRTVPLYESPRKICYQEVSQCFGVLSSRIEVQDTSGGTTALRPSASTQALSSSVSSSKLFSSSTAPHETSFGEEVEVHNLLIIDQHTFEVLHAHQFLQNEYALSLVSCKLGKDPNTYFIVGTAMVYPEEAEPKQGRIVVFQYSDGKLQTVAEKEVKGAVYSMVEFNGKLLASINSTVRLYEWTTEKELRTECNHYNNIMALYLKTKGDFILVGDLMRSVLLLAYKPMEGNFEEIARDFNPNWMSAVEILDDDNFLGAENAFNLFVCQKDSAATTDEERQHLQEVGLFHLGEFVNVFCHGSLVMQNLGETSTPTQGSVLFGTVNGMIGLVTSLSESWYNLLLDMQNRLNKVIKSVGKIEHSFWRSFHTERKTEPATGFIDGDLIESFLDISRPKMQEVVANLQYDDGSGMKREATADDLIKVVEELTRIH
Test: Time-resolved fluorescence resonance energy transfer (TR-FRET) assay, displacement of Cy5-labeled thalidomide
Format: binding
Details: read-out: CRBN HTRF IC50
In this section, each of the molecules is paired with its reported IC50.
measurement_type: IC50

* O=C1CCC(n2c3ccccc3c3ccc(O)nc32)C(=O)N1 (stereo not shown) | < 10 µM
* CC(C)(C)OC(=O)NCCOCCOCCCc1ccc2c3cccnc3n(C3CCC(=O)NC3=O)c2c1 (stereo not shown) | 10 to 30 µM
* O=C1CCC(n2c3ccccc3c3cncnc32)C(=O)N1 (stereo not shown) | 10 to 30 µM
* O=C1CCC(n2c3ccccc3c3ncsc32)C(=O)N1 (stereo not shown) | < 10 µM
* N#Cc1ccc2c(c1)c1cccnc1n2C1CCC(=O)NC1=O (stereo not shown) | 10 to 30 µM
* N#Cc1ccc2c3ccccc3n(C3CCC(=O)NC3=O)c2n1 (stereo not shown) | 10 to 30 µM
* O=C1CCC(n2c3cccc(Br)c3c3ccsc32)C(=O)N1 (stereo not shown) | < 10 µM
* CN(C)c1ccc2c(c1)c1cccnc1n2C1CCC(=O)NC1=O (stereo not shown) | < 10 µM
* CCOC(=O)Nc1ccc2c(c1)c1cccnc1n2C1CCC(=O)NC1=O (stereo not shown) | 10 to 30 µM
* CC(=O)Nc1ccc2c3ccccc3n(C3CCC(=O)NC3=O)c2n1 (stereo not shown) | 10 to 30 µM
* O=C1CCC(n2c3ccccc3c3scnc32)C(=O)N1 (stereo not shown) | 10 to 30 µM
* O=C1CCC(n2c3ccc(Br)cc3c3ccsc32)C(=O)N1 (stereo not shown) | < 10 µM
* CC(C)(C)OC(=O)NC1CCN(CCc2ccc3c(c2)c2cccnc2n3C2CCC(=O)NC2=O)CC1 (stereo not shown) | < 10 µM
